system: SK-OV-3 ovarian; experiment: NCI-60 one-dose screen, 48 h; settings: 10 µM unless noted
About 83,000 compounds went through this panel and 20% of them were active in at least one assay; those are over-represented in the sample as a whole. Activity calls are given as the source filed them. The calls were made as follows: active = growth percent below 10; inactive = the rest.
Permitted responses: TRUE (active), FALSE (inactive)

1) CN(C)c1ccc(C2CC(c3ccccc3)=NN2/C=C2\SC(=O)NC2=O)cc1 (stereo not given)	FALSE

Here is the next item to consider.
In: What did this assay record as the result for `Cc1oc2ncnc(Nc3ccccc3)c2c1C(=O)NCCO` ?
Out: FALSE

====

Test system: LOX IMVI melanoma
Experiment: NCI-60 one-dose screen, 48 h (100 = growth as untreated, 0 = no growth, -100 = all killed)
Conditions: 10 µM unless noted
Procedure: Growth inhibition of the LOX IMVI human tumor cell line is measured as a screen for anti-cancer activity. Cells are grown in 96 well plates and exposed to the test compound for 48 hours. Compounds are tested at a single concentration, which is 10^-5 M for most compounds. The reported endpoint is percent growth (GI% or GIPRCNT), where numbers from 0 - 100% represent growth inhibition, and numbers from -100% - 0 represent cell death. For example, a value of 40 represents 60% growth inhibition. […]
About 83,000 compounds went through this panel and 20% of them were active in at least one assay; those are over-represented in the sample as a whole.
growth below 90% gives class 0; growth at or above it gives class 1.

Example results:
1) Cc1oc2ncnc(Nc3ccccc3)c2c1C(=O)NCCO	class 1
2) COc1ccc(/C=C/C(=O)OCC(=O)NNC(=O)c2ccccc2)cc1OC	class 0
3) O=C(O)c1ccc(-n2c(=O)c3ccccc3c3ccccc3c2=O)cc1	class 1
4) COc1cc(C(=O)OCCCCCCCCCCC[P+](c2ccccc2)(c2ccccc2)c2ccccc2)ccc1O	class 0
5) O=C(/C=C/CN1CCOCC1)Nc1cc2c(Nc3cccc(Cl)c3F)ncnc2cc1OCCOC(F)F	class 0
6) CCSc1nnc(NC(=O)Cc2ccc(Cl)cc2)s1	class 1
7) O=S(=O)(NCCNc1cc(-c2cn(-c3ccccc3)nc2-c2ccccc2)ccn1)c1ccc(F)cc1	class 0
8) CN1C(=O)[C@H]2c3c1cccc3[C@@]13NC(=O)O[C@H]1[C@H](CCC3(C)C)C2(C)C	class 1

In: Determine whether this compound has growth no lower than 90%: CCN1C(=O)N(CC)C2C1NN=c1s/c(=C\c3cccc(F)c3)c(=O)n12 (stereo unspecified)
Out: class 0

In: Likewise for `O=C(NCCCN1CCN(CCCNC(=O)C2CCCCC2)CC1)C1CCCCC1` ?
Out: class 1

In: Likewise for `Oc1ccc(Cl)cc1-c1cc(-c2ccc(Cl)cc2)n[nH]1` ?
Out: class 0

In: Likewise for `CCCCCC/C=C\CCCCCCCCOc1ccc(CCOP(=O)(O)OCC[N+](C)(C)C)cc1` ?
Out: class 0

In: Likewise for `COc1cc(OC)c(C(=O)/C=C/c2ccc(C(F)(F)F)cc2)c(OC)c1` ?
Out: class 0

In: Likewise for CC(Cc1nnc(SCC(=O)Nc2ccc(I)cc2)n1N)c1ccccc1 (stereo unspecified) ?
Out: class 0

In: Likewise for `COc1ccc(/C=C/c2cc(N3CCOCC3)c3cc(F)c(F)cc3n2)cc1OC` ?
Out: class 0

In: Likewise for `CCO/C=N/NC(=O)c1ccncc1` ?
Out: class 1
